molecular target: 11β-HSD2 Dehydrogenase (Ovis aries, UniProt P50168); construct: using 50 nM corticosterone substrate concentration and sheep kidney microsomes; from tissue; host or cells: sheep kidney microsomes; test: Inhibition of 11β-HSD2 dehydrogenase activity (Table 1); type: biochemical, sheep; conditions: inhibition class in words
Sequence (P50168 whole entry): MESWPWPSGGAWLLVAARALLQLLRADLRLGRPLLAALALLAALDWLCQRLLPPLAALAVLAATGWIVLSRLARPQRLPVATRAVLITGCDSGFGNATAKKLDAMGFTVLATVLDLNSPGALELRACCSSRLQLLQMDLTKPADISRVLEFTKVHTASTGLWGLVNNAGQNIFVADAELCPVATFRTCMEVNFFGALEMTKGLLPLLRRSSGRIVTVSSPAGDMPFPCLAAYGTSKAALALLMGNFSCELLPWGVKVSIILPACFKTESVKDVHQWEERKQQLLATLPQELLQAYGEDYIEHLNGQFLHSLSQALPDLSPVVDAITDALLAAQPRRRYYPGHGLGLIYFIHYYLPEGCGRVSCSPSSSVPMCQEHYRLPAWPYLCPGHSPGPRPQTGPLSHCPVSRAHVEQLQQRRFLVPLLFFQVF
OUTCOME_MEASURE: 11β-HSD2 Dehydrogenase

C[C@]12CC[C@H](O)C[C@@H]1CC[C@@H]1[C@@H]2[C@@H](O)C[C@]2(C)[C@@H](C(=O)CO)CC[C@@H]12 :: Potent Inhibitor
C[C@]12CCC(=O)C[C@@H]1CC[C@@H]1[C@@H]2[C@@H](O)C[C@]2(C)[C@@H](C(=O)CO)CC[C@@H]12 [5α-dihydro-corticosterone] :: Potent Inhibitor

====

biological target: 11β-HSD1 Reductase (Rattus norvegicus, UniProt P16232); experiment: Inhibition of 11β-HSD1 reductase activity (Table 1); conditions: inhibition class in words
OUTCOME_MEASURE: 11β-HSD1 Reductase

C[C@]12CC[C@H](O)C[C@@H]1CC[C@@H]1[C@@H]2[C@@H](O)C[C@]2(C=O)[C@@H](C(=O)CO)CC[C@@H]12 :: No Inhibition
C[C@]12CC[C@H](O)C[C@H]1CC[C@@H]1[C@H]2[C@@H](O)C[C@@]2(C)[C@@H]1CC[C@@H]2O :: No Inhibition
CC(=O)[C@H]1CC[C@@H]2[C@@H]3CCC4=CC(=O)CC[C@]4(C)[C@@H]3[C@@H](O)C[C@]12C :: No Inhibition

====

biological target: 11β-HSD1 Reductase (Rattus norvegicus, UniProt P16232); experiment: Inhibition of 11β-HSD1 reductase activity (Table 1); conditions: inhibition class in words
OUTCOME_MEASURE: 11β-HSD1 Reductase

C[C@]12CC[C@H](O)C[C@@H]1CC[C@@H]1[C@@H]2C(=O)C[C@]2(C)C(=O)CC[C@@H]12 :: Selective Inhibitor
C[C@]12CCC(=O)C=C1CC[C@@H]1[C@H]2C(=O)C[C@]2(C)C(=O)CC[C@H]12 (stereo in doubt) :: Selective Inhibitor
C[C@]12CC[C@H](O)C[C@@H]1CC[C@@H]1[C@@H]2[C@@H](O)C[C@]2(C)[C@@H](O)CC[C@@H]12 :: No Inhibition
C[C@]12C[C@H](O)[C@@H]3[C@@H](CCC4=CC(=O)CC[C@@]43C)[C@H]1CC[C@@H]2O :: No Inhibition
CC(=O)[C@H]1CC[C@@H]2[C@@H]3CC[C@@H]4C[C@@H](O)CC[C@]4(C)[C@@H]3[C@@H](O)C[C@]12C :: No Inhibition
C[C@]12CC[C@H](O)C[C@H]1CC[C@@H]1[C@H]2[C@@H](O)C[C@]2(C)C(=O)CC[C@H]12 :: No Inhibition

query: Given the entry CC(=O)[C@H]1CC[C@H]2[C@@H]3CC[C@H]4C[C@@H](O)CC[C@]4(C)[C@H]3[C@@H](O)C[C@]12C , what 11β-HSD1 Reductase was observed with 11β-HSD1 Reductase (Rattus norvegicus, UniProt P16232)?
result: No Inhibition

query: Recall the recorded 11β-HSD1 Reductase for C[C@]12CC[C@H](O)C[C@@H]1CC[C@@H]1[C@@H]2[C@@H](O)C[C@]2(C)[C@@H](C(=O)CO)CC[C@@H]12 with 11β-HSD1 Reductase (Rattus norvegicus, UniProt P16232) and state it.
result: No Inhibition

query: // map C[C@]12CC[C@H](O)C[C@@H]1CC[C@H]1[C@@H]3CC[C@H](O)[C@@]3(C)CC(=O)[C@@H]12 to recorded 11β-HSD1 Reductase (system: 11β-HSD1 Reductase (Rattus norvegicus, UniProt P16232))
result: Selective Inhibitor

query: Observed 11β-HSD1 Reductase on 11β-HSD1 Reductase (Rattus norvegicus, UniProt P16232) for CC(=O)[C@H]1CC[C@@H]2[C@@H]3CCC4=CC(=O)CC[C@]4(C)[C@@H]3C(=O)C[C@]12C , please.
result: Selective Inhibitor

====

target: 11β-HSD2 Dehydrogenase (Ovis aries, UniProt P50168); construct: using 50 nM corticosterone substrate concentration and sheep kidney microsomes; from tissue; host or cells: sheep kidney microsomes; assay: Inhibition of 11β-HSD2 dehydrogenase activity (Table 1); format: biochemical, sheep; details: inhibition class in words
OUTCOME_MEASURE: 11β-HSD2 Dehydrogenase

C[C@]12CC[C@H](O)C[C@@H]1CC[C@@H]1[C@@H]2[C@@H](O)C[C@]2(C=O)[C@@H](C(=O)CO)CC[C@@H]12 :: Potent Inhibitor
CC(=O)[C@H]1CC[C@@H]2[C@@H]3CC[C@@H]4C[C@@H](O)CC[C@]4(C)[C@@H]3[C@@H](O)C[C@]12C :: No Inhibition
C[C@]12CC(=O)[C@H]3[C@@H](CCC4=CC(=O)CC[C@@]43C)[C@@H]1CC[C@@H]2O :: No Inhibition
CC(=O)[C@H]1CC[C@@H]2[C@@H]3CCC4=CC(=O)CC[C@]4(C)[C@@H]3C(=O)C[C@]12C :: Potent Inhibitor
C[C@]12CCC(=O)C=C1CC[C@@H]1[C@H]2C(=O)C[C@]2(C)C(=O)CC[C@H]12 (stereo in doubt) :: No Inhibition

Turning to the following compound.
query: What does the record list as 11β-HSD2 Dehydrogenase for C[C@]12CC[C@H](O)C[C@@H]1CC[C@H]1[C@@H]3CC[C@H](C(=O)CO)[C@@]3(C)CC(=O)[C@@H]12 ?
result: Potent Inhibitor

====

molecular target: 11β-HSD1 Dehydrogenase (Rattus norvegicus); assay: Inhibition of 11β-HSD1 dehydrogenase activity (Table 1); assay type: biochemical; settings: inhibition class in words
Sequence (P16232 whole entry): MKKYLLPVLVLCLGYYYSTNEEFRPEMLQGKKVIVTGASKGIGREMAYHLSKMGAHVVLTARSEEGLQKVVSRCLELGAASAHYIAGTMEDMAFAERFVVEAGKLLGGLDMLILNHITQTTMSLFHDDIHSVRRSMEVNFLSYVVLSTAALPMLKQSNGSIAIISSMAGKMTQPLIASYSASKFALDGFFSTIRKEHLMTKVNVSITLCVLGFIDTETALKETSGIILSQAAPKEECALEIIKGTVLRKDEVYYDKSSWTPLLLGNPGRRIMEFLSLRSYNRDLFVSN
OUTCOME_MEASURE: 11β-HSD1 Dehydrogenase

Record excerpt, results attached:
C[C@]12CC[C@H](O)C[C@@H]1CC[C@H]1[C@@H]3CC[C@H](C(=O)CO)[C@@]3(C)CC(=O)[C@@H]12 :: No Inhibition
C[C@]12CC[C@H](O)C[C@@H]1CC[C@H]1[C@@H]3CC[C@H](O)[C@@]3(C)CC(=O)[C@@H]12 :: No Inhibition
C[C@]12CC[C@H](O)C[C@@H]1CC[C@@H]1[C@@H]2[C@@H](O)C[C@]2(C)[C@@H](C(=O)CO)CC[C@@H]12 :: Potent Inhibitor
C[C@]12CC[C@H](O)C[C@H]1CC[C@@H]1[C@H]2[C@@H](O)C[C@@]2(C)[C@@H]1CC[C@@H]2O :: Moderate Inhibitor
C[C@]12CC[C@H](O)C[C@@H]1CC[C@@H]1[C@@H]2C(=O)C[C@]2(C)C(=O)CC[C@@H]12 :: No Inhibition

query: Name the reported 11β-HSD1 Dehydrogenase value associated with the molecule CC(=O)[C@H]1CC[C@@H]2[C@@H]3CCC4=CC(=O)CC[C@]4(C)[C@@H]3C(=O)C[C@]12C
result: No Inhibition

query: For C[C@]12CCC(=O)C[C@@H]1CC[C@@H]1[C@@H]2[C@@H](O)C[C@]2(C)[C@@H](C(=O)CO)CC[C@@H]12 [5α-dihydro-corticosterone] , what is its reported 11β-HSD1 Dehydrogenase?
result: Potent Inhibitor

query: Entry CC(=O)[C@H]1CC[C@@H]2[C@@H]3CC[C@@H]4C[C@@H](O)CC[C@]4(C)[C@@H]3[C@@H](O)C[C@]12C has what 11β-HSD1 Dehydrogenase?
result: Moderate Inhibitor

query: # get_value(readout='11β-HSD1 Dehydrogenase', item= C[C@]12CCC(=O)C=C1CC[C@@H]1[C@H]2C(=O)C[C@]2(C)C(=O)CC[C@H]12 (stereo in doubt) )
result: No Inhibition

query: Find the recorded 11β-HSD1 Dehydrogenase belonging to C[C@]12CC[C@H](O)C[C@H]1CC[C@@H]1[C@H]2[C@@H](O)C[C@]2(C)C(=O)CC[C@H]12 and report it.
result: Moderate Inhibitor
